Below: a set of entries, each annotated with reported KD improvement compared to ΔB7-H6 wt.
- target-under-test: human NKp30 (human) (UniProt O14931)
- Sequence (O14931 19-135 limits assumed): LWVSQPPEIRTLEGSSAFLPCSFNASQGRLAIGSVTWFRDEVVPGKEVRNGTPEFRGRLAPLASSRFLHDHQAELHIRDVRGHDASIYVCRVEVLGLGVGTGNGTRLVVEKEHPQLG
- assay-comment: BLI, ratio to ΔB7-H6_wt
Kindly answer with a numeric value in fold, unit omitted.

Field request: KD improvement compared to ΔB7-H6 wt | item: ΔB7-H6_S2#10-SEED-PGLALA (bispecific antibody, part only; not given: SEED Fc chains and hu225 EGFR Fab, part only) chain, part: DLKVEMMAGGTQITPLNDNVTIFCNIFYSQPLNITLMGITWFWKSLTFDKEVKVFEFWGDHQEAFRPGAIVSPWGLKSGDASLRLPGIQLEEAGEYRCEVVVTPLKAQGTVQLEVVASPAS 2.2

Field request: KD improvement compared to ΔB7-H6 wt | item: ΔB7-H6_S3#1-SEED-PGLALA (bispecific antibody, part only; not given: SEED Fc chains and hu225 EGFR Fab, part only) chain, part: DLKVEMMAGGTQITPLNDNVTIFCNIFYSQPLNITTMGITWFWKSLTFDKEVKVFEFWGDHQEAFRPGAIVSPWRLKSGDASLRLPGIQLEEAGEYRCEVVVTPYKAQGTVQLEVVASPAS 10.5

Field request: KD improvement compared to ΔB7-H6 wt | item: ΔB7-H6_S3#16-SEED-PGLALA (bispecific antibody, part only; not given: SEED Fc chains and hu225 Fab, part only) chain, part: DLKVEMMAGGTQITPLNDNVTIFCNIFYSQPLNITLMGITWFWKSLTFDKEVKVFEFYGDHQEAFRPGAIVSPWRLKSGDASLRLPGIQLEEAGEYRCEVVVTPYKAQGTVQLEVVASPAS 14.3

Field request: KD improvement compared to ΔB7-H6 wt | item: ΔB7-H6_S2#2-SEED-PGLALA (bispecific antibody, part only; not given: SEED Fc chains and hu225 Fab, part only) chain, part: DLKVEMMAGGTQITPLNDNVTIFCNIFYSQPLNITSMGITWFWKSLTFDKEVKVFEFWDDHQEAFRPGAIVSPWRLKSGDASLRLPGIQLEEAGEYRCEVVVTPYKAQGTVQLEVVASPAS 1.9

More entries:
Field request: KD improvement compared to ΔB7-H6 wt | item: ΔB7-H6_S2#3-SEED-PGLALA (bispecific antibody, part only; not given: SEED Fc chains and hu225 Fab, part only) chain, part: DLKVEMMAGGTQITPLNDNVTIFCNIFYSQPLNITTMGITWFWKSLTFDKEVKVFEFWGDHQEAFRPGAIVSPWRLKSGDASLRLPGIQLEEAGEYRCEVVVTPLKAQGTVQLEVVASPAS 2.1

Field request: KD improvement compared to ΔB7-H6 wt | item: ΔB7-H6_S3#7-SEED-PGLALA (bispecific antibody, part only; not given: SEED Fc chains and hu225 Fab, part only) chain, part: DLKVEMMAGGTQITPLNDNVTIFCNIFYSQPLNITHMGITWFWKSLTFDKEVKVFEFYGDHQEAFRPGAIVSPWRLKSGDASLRLPGIQLEEAGEYRCEVVVTPYKAQGTVQLEVVASPAS 3.7

Field request: KD improvement compared to ΔB7-H6 wt | item: ΔB7-H6_S3#27-SEED-PGLALA (bispecific antibody, part only; not given: SEED Fc chains and hu225 EGFR Fab, part only) chain, part: DLKVEMMAGGTQITPLNDNVTIFCNIFYSQPLNITTMGITWFWKSLTFDKEVKVFEFWGDHQEAFRPGAIVSPWRLKSGDASLRLPGIQLEEAGEYRCEVIVTPYKAQGTVQLEVVASPAS 4.9

Field request: KD improvement compared to ΔB7-H6 wt | item: ΔB7-H6_S3#24-SEED-PGLALA (bispecific antibody, part only; not given: SEED Fc chains and hu225 Fab, part only) chain, part: DLKVEMMAGGTQITPLNDNVTIFCNIFYSQPLNITIMGITWFWKSLTFDKEVKVFEFYGDHQEAFRPGAIVSPWRLKSGDASLRLPGIQLEEAGEYRCEVVVTPYKAQGTVQLEVVASPAS 27.4
